Data credit: PubChem BioAssay (NCI)

Tested on: K-562 leukemia
test_summary: NCI tumour cell line growth inhibition, 48 h
Kind request: treat 40 µM as inclusive, so TGI at 40 µM or higher is 1, anything lower is 0.

Worked cases, answers included:
molecule	assigned_class
CN(CCCCCl)P(=O)(OCc1ccc([N+](=O)[O-])o1)C(F)(F)c1ccc(CC(=O)N[C@@H](CC(=O)O)C(=O)N[C@@H](Cc2ccc(C(F)(F)P(=O)(OCc3ccc([N+](=O)[O-])o3)N(C)CCCCCl)cc2)C(N)=O)cc1 (some centres not stated)	1
Fc1ccc(CNc2c3ccccc3nc3ccccc23)cc1	0
CC(=O)O[C@H]1C(=O)[C@@]2(C)[C@H]([C@H](OC(=O)c3ccccc3)[C@]3(O)C[C@H](OC(=O)[C@H](O)[C@@H](NC(=O)c4ccccc4)C4CCCCC4)C(C)=C1C3(C)C)[C@]1(OC(C)=O)CO[C@@H]1C[C@@H]2O	1
COc1ccc2nc3cc(Cl)ccc3c(NCCC(=O)OCC(O)C(O)C(O[C@H](C)C(=O)NC(C)C(=O)NC(CCC(N)=O)C(=O)OCc3ccccc3)C(C=O)NC(C)=O)c2c1 (some centres not stated)	1
Cc1c(C)c(S(=O)(=O)N(CCCCCN)OCCCN)c(C)c2c1OC(C)(C)CC2	1

Reported TGI reaches at least 40 µM for `OCCOCCN1CCN(c2nc(N3CCCC3)c3nc(Cl)c(NCc4ccccc4)nc3n2)CC1` ?
0

Reported TGI reaches at least 40 µM for `COc1cc(-c2cc(/C=C/C(=O)c3ccc4c(c3)OCO4)[nH]n2)cc(OC)c1OC` ?
0

###

Tested on: U251 CNS
test_summary: NCI tumour cell line growth inhibition, 48 h
The entries below are paired with their reported TGI.

These solved cases illustrate the format of a correct answer.
molecule	study_target	TGI
CSC(=S)N/N=C/c1ccccc1	U251 CNS	> 100 µM
CN(C)c1ccccc1CC(c1c[nH]c2ccccc12)c1c[nH]c2ccccc12	U251 CNS	24.7 µM
COc1ccc2nc3cc(Cl)ccc3c(NCCC(=O)OCC(O)C(O)C(O[C@H](C)C(=O)NC(C)C(=O)NC(CCC(N)=O)C(=O)OCc3ccccc3)C(C=O)NC(C)=O)c2c1 (stereo partly specified)	U251 CNS	35.7 µM
Cc1c(/C=N/NC(=O)c2ccccc2)c(=O)n(-c2ccccc2)n1C	U251 CNS	> 100 µM
CCCN(CCC)c1ccc(C=O)cc1	U251 CNS	> 100 µM

Quick one: give measured TGI for `O=C(CCc1nnc2s/c(=C\c3ccc4c(c3)OCO4)c(=O)n12)Nc1cc(Cl)ccc1Cl`
> 100 µM

Quick one: give measured TGI for NCCCCC(N)C(=O)N1CCN(c2nc(N3CCCC3)c3nc(Cl)c(NCc4ccccc4)nc3n2)CC1 (stereo unspecified)
36.5 µM

Quick one: give measured TGI for `CN1C[C@H]2[C@@H](C1=O)[C@H](c1ccc([N+](=O)[O-])cc1)ON2C`
> 100 µM

Quick one: give measured TGI for `Cc1ccccc1N=Cc1ccc(N(CCC#N)S(=O)(=O)c2ccccc2)cc1`
> 100 µM

Quick one: give measured TGI for `COC(=O)NNc1c([N+](=O)[O-])cnn(-c2ccccc2)c1=O`
4.59 µM

Quick one: give measured TGI for `O=C(O)Cn1nnc2c(=O)[nH][nH]c(=O)c21`
> 100 µM

Quick one: give measured TGI for `CC1=Nc2nc3ccccc3n2C(C)(C)C1`
> 100 µM

Quick one: give measured TGI for O=c1cc2n(c(=O)[nH]1)C1OC(C(O)C1O)[C@H]2CCO (stereo partly specified)
> 100 µM

Quick one: give measured TGI for `COc1ccccc1CNCCCN1C(=O)c2ccc3c4c(ccc(c24)C1=O)C(=O)N(CCCNCCCCNCCCCN)C3=O`
3.25 µM

Quick one: give measured TGI for `CN(C)C1(C(=O)O)CC1`
> 100 µM

Quick one: give measured TGI for O=C(Nc1ccc(Cl)c(Cl)c1)C(=O)C(C1OC(=O)c2ccccc21)[N+](=O)[O-] (stereo unspecified)
> 100 µM

Quick one: give measured TGI for CC1(C)CC(=O)C(CC(C(=O)C(=O)Nc2cc(C(F)(F)F)ccc2Cl)C(=O)c2ccco2)C(=O)C1 (stereo unspecified)
> 100 µM

Quick one: give measured TGI for CC(C)(C)C(=O)OCOP(=O)(OCOC(=O)C(C)(C)C)C1CCCN(OC(=O)c2ccccc2)C1=O (stereo unspecified)
10.5 µM

Quick one: give measured TGI for `COc1cc2c(c(N)c1OC)C(=O)/C(=C/c1cc(C)c(O)c(C)c1)C2`
> 45.5 µM

Quick one: give measured TGI for CCOC(=O)N1CC2(C(=O)OC)C=CC1C(C(=O)OC)C2 (stereo unspecified)
> 100 µM

Quick one: give measured TGI for O=C1NC2OCC(O)C(O1)C2O (stereo unspecified)
> 100 µM
